- test.protocol: Maximum tolerated dose in nude mice
- details: mouse, in vivo, intravenous, free bodies
Counter-ions that a name gives are not always drawn.
value.type: MTD (mg/kg)

>  <molecule>
C=C1C[C@@H]2CC[C@@]34C[C@H]5O[C@H]6[C@@H](O3)[C@H]3O[C@H](CC[C@@H]3O[C@H]6[C@H]5O4)CC(=O)C[C@@H]3[C@@H](OC)[C@@H](C[C@H](O)CN)O[C@H]3C[C@H]3O[C@@H](CC[C@@H]1O2)C[C@@H](C)C3=C [Eribulin mesylate, eribulin mesylate]

>  <result>
4

$$$$

Cited source: patent US12042560B2
